Test system: CCRF-CEM
protocol_description: Growth inhibition of human CCRF-CEM cells incubated for 48 hrs by sulforhodamine B assay
Format: functional
observation_type: GI50 (µM)

| molecule | study_target | observation_type | observed_result |
| --- | --- | --- | --- |
| COc1ccccc1CNCCCN1C(=O)c2ccc3c4c(ccc(c24)C1=O)C(=O)N(CCCCNCCCN)C3=O | CCRF-CEM | GI50 | 0.7 |

A = CNCCCNCCCCNCCCN1C(=O)c2ccc3c4c(ccc(c24)C1=O)C(=O)N(CCCNCc1ccccc1OC)C3=O
B = COc1ccccc1CNCCCN1C(=O)c2ccc3c4c(ccc(c24)C1=O)C(=O)N(CCCNCCNCCCN)C3=O
Min GI50? A | B To answer, give the label that identifies your chosen option.
B
(B: 0.317 µM, A: 2.77 µM)

1 = COc1ccccc1CNCCCN1C(=O)c2ccc3c4c(ccc(c24)C1=O)C(=O)N(CCCNCCCCNCCCN)C3=O
2 = COc1ccccc1CNCCCN1C(=O)c2ccc3c4c(ccc(c24)C1=O)C(=O)N(CCCNCCCN)C3=O
Choose between 1 and 2 : whose measured GI50 value is numerically larger? Could you answer with the label of the item you picked?
1
(1: 0.425 µM, 2: 0.193 µM)

P = COc1ccccc1CNCCCN1C(=O)c2ccc3c4c(ccc(c24)C1=O)C(=O)N(CCCOCCCCOCCCN)C3=O
Q = COc1ccccc1CNCCCN1C(=O)c2ccc3c4c(ccc(c24)C1=O)C(=O)N(CCCNCCCCN)C3=O
For the pair P and Q , which entry has the numerically smaller recorded GI50? Record your answer as the label of the chosen record.
Q
(Q: 0.275 µM, P: 0.55 µM)

All values here come from ChEMBL document CHEMBL4004831.
